measuredTarget: Orexin/Hypocretin receptor type 1 (Homo sapiens, UniProt O43613)
Sequence (O43613 whole entry): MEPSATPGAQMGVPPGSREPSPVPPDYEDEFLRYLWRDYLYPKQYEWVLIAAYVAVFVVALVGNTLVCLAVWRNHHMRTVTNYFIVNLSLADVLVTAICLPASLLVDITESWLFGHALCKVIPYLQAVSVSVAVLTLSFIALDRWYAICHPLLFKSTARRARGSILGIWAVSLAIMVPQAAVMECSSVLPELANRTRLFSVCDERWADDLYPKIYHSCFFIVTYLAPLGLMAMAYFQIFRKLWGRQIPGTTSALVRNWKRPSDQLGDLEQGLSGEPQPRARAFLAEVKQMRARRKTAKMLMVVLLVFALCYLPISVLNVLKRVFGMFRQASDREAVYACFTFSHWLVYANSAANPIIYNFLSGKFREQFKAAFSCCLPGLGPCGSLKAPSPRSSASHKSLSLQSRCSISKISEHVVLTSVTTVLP
protocolNotes: Agonist activity at human OX1 receptor expressed in HEK293 cells assessed as IP-1 accumulation incubated for […] by HTRF IP-one Gq detection assay
resultType: EC50

Cn1nnc(-c2oncc2CC(=O)N(C2CC3(CC3)C2)[C@@H](C(=O)NC23CC(C)(C2)C3)c2cc(F)ccc2F)n1 = > 20 µM

Continue with the molecule presented below.
Query: EC50; subject: "Cn1nnc(-c2c(CC(=O)N(C3CC4(CC4)C3)[C@@H](C(=O)NC34CC(C)(C3)C4)c3ccccc3Cl)cnn2C)n1"
> 20 µM

###

measuredTarget: Cytochrome P450 3A4 (Homo sapiens, UniProt P08684)
Sequence (P08684 whole entry): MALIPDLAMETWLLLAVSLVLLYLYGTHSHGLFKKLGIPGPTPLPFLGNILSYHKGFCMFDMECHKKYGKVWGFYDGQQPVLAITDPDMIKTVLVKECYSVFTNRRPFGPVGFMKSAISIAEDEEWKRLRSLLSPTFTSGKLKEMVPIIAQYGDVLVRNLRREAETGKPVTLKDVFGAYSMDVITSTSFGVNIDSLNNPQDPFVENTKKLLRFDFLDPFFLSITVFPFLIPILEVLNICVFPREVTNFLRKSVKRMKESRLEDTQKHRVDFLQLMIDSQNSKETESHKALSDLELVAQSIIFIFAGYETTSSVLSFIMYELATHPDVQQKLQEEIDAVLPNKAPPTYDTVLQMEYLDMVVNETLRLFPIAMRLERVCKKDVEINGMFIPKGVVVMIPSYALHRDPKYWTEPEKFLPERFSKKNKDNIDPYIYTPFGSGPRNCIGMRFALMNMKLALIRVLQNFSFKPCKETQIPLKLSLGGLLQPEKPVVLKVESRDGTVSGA
Rule: IC50 below 2000 nM gives 1. Equal to or above 2000 nM gives -1.

Solved cases (6 shown):
COc1cccc(-c2c(CC(=O)N(C3CCCC3)C(C(=O)NC34CC(C)(C3)C4)c3ccccc3)cnn2C)c1F (configuration not stated) = 1
Cn1ncc(CC(=O)N(C2CCCC2)C(C(=O)NC23CC(C)(C2)C3)c2ccccc2)c1-c1coc(C2CC2)n1 (configuration not stated) = -1
Cn1ncc(CC(=O)N(C2CCCC2)[C@@H](C(=O)NC23CC(C)(C2)C3)c2ccccc2)c1-c1ccccc1 = -1
O=C(NC1CCCCC1)[C@@H](c1ccccc1)N(C[C@H]1CCCO1)C(=O)Cn1cncc1-c1ccccc1 = 1
Cn1ncc(CC(=O)N(C2CCCC2)C(C(=O)NC23CC(C)(C2)C3)c2ccccc2)c1-c1ncccn1 (configuration not stated) = -1
COc1cccc(-c2c(CC(=O)N(C3CCCC3)C(C(=O)NC34CC(C)(C3)C4)c3ccccc3)cnn2C)c1 (configuration not stated) = 1

Field: next compound
Please indicate whether the reported IC50 of Cn1ncc(CC(=O)N(C2CCCC2)C(C(=O)NC23CC(C)(C2)C3)c2ccccc2)c1-c1ccc(F)cc1F (configuration not stated) is strictly below 2000 nM.
1

###

measuredTarget: Cytochrome P450 2C9 (Homo sapiens, UniProt P11712)
Sequence (P11712 whole entry): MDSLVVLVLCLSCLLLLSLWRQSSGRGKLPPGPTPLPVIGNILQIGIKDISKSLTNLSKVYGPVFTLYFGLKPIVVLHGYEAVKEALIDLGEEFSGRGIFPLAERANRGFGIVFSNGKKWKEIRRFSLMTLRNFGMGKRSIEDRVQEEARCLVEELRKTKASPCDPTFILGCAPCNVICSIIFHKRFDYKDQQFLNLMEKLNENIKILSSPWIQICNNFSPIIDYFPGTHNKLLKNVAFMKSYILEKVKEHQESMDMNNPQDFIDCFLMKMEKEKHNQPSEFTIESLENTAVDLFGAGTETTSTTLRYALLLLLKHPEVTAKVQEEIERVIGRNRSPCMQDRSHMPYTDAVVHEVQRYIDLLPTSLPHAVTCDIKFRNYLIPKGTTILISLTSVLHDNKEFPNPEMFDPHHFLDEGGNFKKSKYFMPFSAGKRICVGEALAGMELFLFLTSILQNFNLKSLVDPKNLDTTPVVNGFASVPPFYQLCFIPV
resultType: IC50
Output should be the measured figure followed by the unit it is expressed in.

Query: IC50; subject: "Cn1nnc(-c2c(CC(=O)N(C3CC4(CC4)C3)[C@@H](C(=O)NC34CC(C)(C3)C4)c3ccccc3Cl)cnn2C)n1"
20 µM

Recorded values, source ChEMBL document CHEMBL6134910.
